# assay.comment: MTT assay, cytotoxicity
# Assay type: cell-based
# stated.conditions: African green monkey, CV-1 cells, read-out: LC50 Cytotoxicity
experimental.endpoint: CC50 at 24 h

Sample records with CC50 at 24 h:
Cc1cc(SC(Cc2c(F)cccc2C(F)(F)F)c2sc(-c3ccc(C(F)(F)F)cc3)nc2C)ccc1OCC(=O)O (stereo not shown) ... > 100 µM
Cc1cc(SC(Cc2ccc(Br)cc2)c2sc(-c3ccc(C(F)(F)F)cc3)nc2C)ccc1OCC(=O)O (stereo not shown) ... 92 µM

Quote CC50 at 24 h reported for Cc1cc(SC(Cc2c(Cl)cccc2Cl)c2sc(-c3ccc(C(F)(F)F)cc3)nc2C)ccc1OCC(=O)O (stereo not shown) please.
> 100 µM

Return CC50 at 24 h (reported value) for this compound: Cc1cc(SC(Cc2cc(F)ccc2Cl)c2sc(-c3ccc(C(F)(F)F)cc3)nc2C)ccc1OCC(=O)O (stereo not shown)
> 100 µM

Supply measured CC50 at 24 h of Cc1cc(SC(CCc2ccccc2)c2sc(-c3ccc(C(F)(F)F)cc3)nc2C)ccc1OCC(=O)O (stereo not shown) in your reply.
> 100 µM

Report measured CC50 at 24 h; entry is Cc1cc(SC(CCCCCc2ccccc2)c2sc(-c3ccc(C(F)(F)F)cc3)nc2C)ccc1OCC(=O)O (stereo not shown)
92 µM

Write down CC50 at 24 h measured for item Cc1cc(SC(Cc2cc(F)ccc2Cl)c2sc(-c3ccc(C(F)(F)F)c(F)c3)nc2C)ccc1OCC(=O)O (stereo not shown)
> 30 µM
